Molecular target: Luciferin 4-monooxygenase (Photinus pyralis)
Experiment: qHTS profiling assay for firefly luciferase inhibitor/activator using purifed enzyme and Km concentrations of substrates (counterscreen for miR-21 project); also: nearly all actives have a fitted effect of over 55% in size
Conditions: purified FLuc, luminescence inhibition; series mostly up to 57.5 µM
The whole screen tested about 360,000 compounds, of which about 25,000 (6.9%) were called active. About 9% were inconclusive and are not listed. Calls follow the shape of the dose curve; as a rule, active = well fitted inhibition curve with a large enough effect; inconclusive = small, poorly fitted or top-dose-only effect; inactive = flat fitted curve, though single readings scatter. Only a selection was taken, and actives are over-represented in it overall.
Parameter call: string, one of active, inactive

See these solved cases before continuing.
COc1cccc(C(=O)NCC(=O)OCc2cc(=O)n3ccsc3n2)c1: inactive
CCCCOc1ccc(C(=O)N2CC(=O)Nc3ccc(Br)cc3C2c2ccc(F)cc2)cc1 (stereo not given): inactive
COc1cccc(C(=O)n2ccc(-c3cccs3)n2)c1: active

Prompt: How was CCNS(=O)(=O)c1ccc(NC(=O)CSc2nc(-c3ccco3)cc(C(F)(F)F)n2)cc1 classified in this test?
Response: inactive

Prompt: Likewise for Cc1cccc(NC(=O)Cn2cc(S(=O)(=O)Cc3ccccc3Cl)c3ccccc32)c1 ?
Response: inactive

* * *

Target: Luciferin 4-monooxygenase (Photinus pyralis) (UniProt P08659)
Sequence (P08659 whole entry, looked up): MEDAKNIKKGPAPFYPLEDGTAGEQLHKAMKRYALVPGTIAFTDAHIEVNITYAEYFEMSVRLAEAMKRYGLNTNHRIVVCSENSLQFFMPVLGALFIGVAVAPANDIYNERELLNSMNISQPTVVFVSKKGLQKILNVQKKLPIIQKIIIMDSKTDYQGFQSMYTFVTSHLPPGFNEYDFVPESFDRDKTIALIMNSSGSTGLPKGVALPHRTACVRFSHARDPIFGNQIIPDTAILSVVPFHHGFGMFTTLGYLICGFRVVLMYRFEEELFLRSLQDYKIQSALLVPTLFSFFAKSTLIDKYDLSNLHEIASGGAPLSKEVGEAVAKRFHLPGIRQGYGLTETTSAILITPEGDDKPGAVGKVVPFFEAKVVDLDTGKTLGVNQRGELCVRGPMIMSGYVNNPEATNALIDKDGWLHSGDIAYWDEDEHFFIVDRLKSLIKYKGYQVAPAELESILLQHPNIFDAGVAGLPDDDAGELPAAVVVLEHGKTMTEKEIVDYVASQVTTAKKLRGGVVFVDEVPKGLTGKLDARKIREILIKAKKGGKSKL
Assay: qHTS profiling assay for firefly luciferase inhibitor/activator using purifed enzyme and Km concentrations of substrates (counterscreen for miR-21 project); also: nearly all actives have a fitted effect of over 55% in size
Settings: purified FLuc, luminescence inhibition; series mostly up to 57.5 µM
About 25,000 (6.9%) of roughly 360,000 compounds were called active. About 9% were inconclusive and are not listed. The call rests on the fitted dose curve; in most records, active means well fitted inhibition curve with a large enough effect; inconclusive means small, poorly fitted or top-dose-only effect; inactive means flat fitted curve, though single readings scatter. This is one part of a sample in which actives are shown more often than they occur.
Assign a class; possible classes are active, inactive

Worked set:
CCOc1ccc(Nc2ncnc3scc(-c4ccc(OC)cc4)c23)cc1: inactive
Cc1ccc(Nc2c(-c3ccc(C)cc3)nc3cnccn23)cc1: inactive
COc1ccc(Nc2ncnc3ccc(Br)cc23)c(OC)c1: active
O=C(O)CCCCCNc1ncnc2ccc(Br)cc12: inactive
Oc1ccccc1N1CCN(c2ncnc3sc(-c4ccccc4)cc23)CC1: inactive

Prompt: Test call for this molecule, please: C=CCNc1ncnc2ccc(Br)cc12
Response: inactive

* * *

Molecular target: Luciferin 4-monooxygenase (Photinus pyralis) (UniProt P08659)
Experiment: qHTS profiling assay for firefly luciferase inhibitor/activator using purifed enzyme and Km concentrations of substrates (counterscreen for miR-21 project); also: nearly all actives have a fitted effect of over 55% in size
Details: purified FLuc, luminescence inhibition; series mostly up to 57.5 µM
The whole screen tested about 360,000 compounds, of which about 25,000 (6.9%) were called active. Roughly 9% stayed inconclusive and do not appear here. The call rests on the fitted dose curve; in most records, active means well fitted inhibition curve with a large enough effect; inconclusive means small, poorly fitted or top-dose-only effect; inactive means flat fitted curve, though single readings scatter. Shown is part of a subset that was picked to be rich in actives.
Response enum: active, inactive

O=C(NCc1ccccn1)C1CCN(S(=O)(=O)c2ccc(Br)cc2)CC1: inactive
CCc1nc2ccc(C(=O)N3CCN(c4cc(Cl)ccc4C)CC3)cc2nc1CC: inactive
COCCNC(=O)C1CCN(S(=O)(=O)c2ccc3c(c2)OCCO3)CC1: inactive

Prompt: // return assay outcome for O=C(CCS(=O)(=O)c1cc(Br)cc2c1N(C(=O)C1CC1)CC2)Nc1ccc(C(F)(F)F)cc1
Response: inactive

Prompt: Check O=C(Nc1ccccn1)C1CCN(S(=O)(=O)c2ccc3c(c2)OCCO3)CC1 too.
Response: active

Prompt: And then CC(=O)c1cc(-c2ccccc2)[nH]c1N1CCCC1 , what is it?
Response: inactive

Prompt: And O=C(Nc1ccccn1)C1CCN(S(=O)(=O)c2ccccc2)CC1 ?
Response: active

Prompt: Next compound up: O=C1NN(c2ccccc2)C(=O)/C1=C/c1ccc(-c2cccc(C(=O)O)c2)o1
Response: active

Prompt: Then CN1C(=O)/C(=C/c2ccco2)SC1=Nc1cccc(C(=O)O)c1 ?
Response: inactive

Prompt: Request: Cc1ccccc1-n1c(=O)c2ccccc2n(Cc2ccc(F)cc2)c1=O
Response: inactive

* * *

Target: Luciferin 4-monooxygenase (Photinus pyralis) (UniProt P08659)
Experiment: qHTS profiling assay for firefly luciferase inhibitor/activator using purifed enzyme and Km concentrations of substrates (counterscreen for miR-21 project); also: nearly all actives have a fitted effect of over 55% in size
Conditions: purified FLuc, luminescence inhibition; series mostly up to 57.5 µM
Among all 360,000 compounds or so, about 25,000 (6.9%) were called active. Roughly 9% stayed inconclusive and do not appear here. Calls follow the shape of the dose curve; as a rule, active = well fitted inhibition curve with a large enough effect; inconclusive = small, poorly fitted or top-dose-only effect; inactive = flat fitted curve, though single readings scatter. Many of the other results were omitted from the sample, so actives are more common in it than they were.
Assign a class; possible classes are active, inactive

Examples with answers:
CCOc1ccc2nc(C(=O)N3CCCC(C)C3)sc2c1 (stereo unspecified): active
O=C1NNC(c2ccccc2)=N/C1=C\c1ccc(Cl)cc1: inactive
Cc1ccc(C)c(NC(=O)C2CCCN(S(=O)(=O)c3cn(C)cn3)C2)c1 (stereo unspecified): inactive
COc1ccc([C@H]2CC(=O)C=C(/C=C/c3ccccc3)C2)cc1: inactive
COCC(C)NS(=O)(=O)c1ccc(N2CCCCS2(=O)=O)cc1 (stereo unspecified): inactive

Prompt: For this compound, state the assay outcome: COc1ccc2c(Sc3ccc(C)cc3)c(C(=O)NC(C)c3ccccc3)[nH]c2c1 (stereo unspecified)
Response: inactive

* * *

Molecular target: Luciferin 4-monooxygenase (Photinus pyralis)
Experiment: qHTS profiling assay for firefly luciferase inhibitor/activator using purifed enzyme and Km concentrations of substrates (counterscreen for miR-21 project); also: nearly all actives have a fitted effect of over 55% in size
Conditions: purified FLuc, luminescence inhibition; series mostly up to 57.5 µM
Out of some 360,000 compounds screened, about 25,000 (6.9%) were called active. Inconclusive results (about 9%) are left out. Calls follow the shape of the dose curve; as a rule, active = well fitted inhibition curve with a large enough effect; inconclusive = small, poorly fitted or top-dose-only effect; inactive = flat fitted curve, though single readings scatter. The entries come from a sample that favours actives as a whole.
Please state which outcome applies, choosing from active, inactive

CCCCN(C(=O)C1CCC1)c1c(N)n(Cc2ccccc2)c(=O)[nH]c1=O: inactive

Okay, now this compound:
Prompt: Lab log entry: CCN(CC)CCN1C(=O)C(=O)/C(=C(/O)c2ccc(OC)c(OC)c2)C1c1ccccn1 (stereo not given) — outcome as called in the assay?
Response: inactive

* * *

Target: Luciferin 4-monooxygenase (Photinus pyralis) (UniProt P08659)
Assay: qHTS profiling assay for firefly luciferase inhibitor/activator using purifed enzyme and Km concentrations of substrates (counterscreen for miR-21 project); also: nearly all actives have a fitted effect of over 55% in size
Details: purified FLuc, luminescence inhibition; series mostly up to 57.5 µM
Excerpt: MLPCN Grant: 1 R21 NS059478-01 (miR-21 grant) Assay Provider: NCGC NCGC Assay Overview: Firefly (Photinus pyralis) luciferase is one of the most commonly used transcriptional reporters for a number of reasons. […] Although light produced in a bioluminescence reaction is of lower intensity than that produced during fluorescence emission, this is offset by little to no background light inherent to luminescent assays. […]
The campaign covered roughly 360,000 compounds. About 25,000 (6.9%) were called active. Another 9% or so got no clear call; they are omitted. The call rests on the fitted dose curve; in most records, active means well fitted inhibition curve with a large enough effect; inconclusive means small, poorly fitted or top-dose-only effect; inactive means flat fitted curve, though single readings scatter. This excerpt belongs to a sample that is enriched for actives.
Outcome field: choose from TRUE for active, FALSE for inactive

Solved cases (6 shown):
O=C(Nc1ccncc1)c1c(F)cccc1F: FALSE
O=C1Cc2cc(S(=O)(=O)Nc3ccc(OC(F)(F)F)cc3)cc3c2N1CCC3: FALSE
NS(=O)(=O)c1ccc2nc(NC(=O)CS(=O)(=O)c3ccc(F)cc3)sc2c1: FALSE
COCCNC(=O)Nc1ccc2nc(-c3ccco3)c(-c3ccco3)nc2c1: TRUE
Cc1cccn2c(=O)c(C(=O)NC(C)c3ccccc3)cnc12 (stereo unspecified): FALSE
COc1ccccc1CNC(=O)CCn1c(=O)c2ccccc2n(CC(=O)Nc2cccc(Cl)c2)c1=O: FALSE

Prompt: Which outcome did this test record for the compound CCCCn1c(N)c(N(CCOC)C(=O)c2oc3ccc(OC)cc3c2C)c(=O)[nH]c1=O ?
Response: FALSE

Prompt: Now this one: CSc1nc2ccc(NC(=O)c3c(F)cccc3F)cc2s1
Response: TRUE

Prompt: Cc1ccc(C(=O)Nc2ccccc2F)cc1S(=O)(=O)N1CCOCC1 , same question.
Response: FALSE

Prompt: Another compound: O=c1c2ccccc2ccc2ccc(P(=O)(O)O)cc12
Response: FALSE

Prompt: Then this compound: NS(=O)(=O)c1ccc2nc(NC(=O)COc3ccccc3)sc2c1
Response: FALSE

* * *

Biological target: Luciferin 4-monooxygenase (Photinus pyralis) (UniProt P08659)
Assay: qHTS profiling assay for firefly luciferase inhibitor/activator using purifed enzyme and Km concentrations of substrates (counterscreen for miR-21 project); also: nearly all actives have a fitted effect of over 55% in size
Conditions: purified FLuc, luminescence inhibition; series mostly up to 57.5 µM
Hit rate of the full screen: of about 360,000 compounds, about 25,000 (6.9%) were called active. Not shown: some 9% with an inconclusive outcome. Calls come from the whole dose curve; as a rule, active = well fitted inhibition curve with a large enough effect; inconclusive = small, poorly fitted or top-dose-only effect; inactive = flat fitted curve, though single readings scatter. The sample as a whole holds a higher share of actives than the screen did.
// one of Y for active, N for inactive, no free text

COc1ccc(CNC(=O)CN2C(=O)NC3(CCCc4sccc43)C2=O)cc1 (configuration not stated): N
CCCn1c(NCc2ccc(N(CC)CC)cc2)nc2ccccc21: N
CCN(C(=O)CSc1nnc(C)n2c1cc1occc12)c1ccccc1: N
COc1ccc(NC(=O)N2CCC(Cc3ccccc3)CC2)cc1: Y

Prompt: # fetch the recorded call for CC(C(=O)N(C)CC(=O)Nc1ccccc1C(F)(F)F)N1C(=O)c2ccccc2C1=O (configuration not stated) here
Response: N

Prompt: Note, next up: COc1ccc(/C=C/c2nc(C#N)c(NCc3ccc(F)cc3)o2)cc1OC
Response: N

Prompt: Query COc1ccc(CNc2nc(-c3ccccc3)nn2C(=O)c2ccccc2OC)cc1 next
Response: N

Prompt: What would you report for c1ccc(-c2cn3c(n2)CCc2ccc4cccnc4c2-3)cc1 ?
Response: Y

Prompt: Also Cn1cc(CCC(=O)NCc2ccc3c(c2)OCO3)c2ccccc21 , if possible.
Response: N

Prompt: Same question, CCc1ccccc1NC(=O)Cc1cn(C)c2ccccc12 this time
Response: N

Prompt: Try this molecule too: O=c1c2ccccc2nc2n1C1(CCCCC1)Cc1ccccc1-2
Response: N

Prompt: Would you kindly repeat that for CC(C)(C)c1ccc(CN2C(=O)c3ccccc3S2(=O)=O)cc1 ?
Response: N

Prompt: Next molecule up: Cc1ccc(CNC(=O)Cc2cn(C)c3ccccc23)cc1
Response: Y

Prompt: Same question, CC(C)(C)c1ccc(OC2=CS(=O)(=O)c3ccccc32)cc1 this time
Response: Y

Prompt: Then what about the molecule CN(c1ccc2nc3ccccc3c(=O)n2n1)C1CCCCC1 ?
Response: Y

Prompt: Similarly, COc1cccc(/C=C2\SC(=N)N(c3ccc(F)cc3)C2=O)c1 ?
Response: N

Prompt: Now consider COC(=O)c1cc(NC(=O)CCS(=O)(=O)c2cc(Br)cc3c2N(C(=O)C2CC2)CC3)cc(C(=O)OC)c1 .
Response: N

Prompt: Try CCCCCCn1cc(C(=O)O)c(=O)c2cc(F)c(N3CCCCC3)cc21 next.
Response: N

Prompt: Could you do the same for CCN(CCCNC(=O)c1cc2cc3cc(OC)ccc3nc2s1)c1ccccc1 , please?
Response: N

Prompt: Next: Clc1ccc(CSc2nnc(/C=C/c3ccccc3)o2)c(Cl)c1
Response: N

Prompt: Now give it for O=C(C1CCCN(S(=O)(=O)c2cccc3nonc23)C1)N1CCN(c2ccccc2F)CC1 (configuration not stated) too.
Response: N

Prompt: Can you handle CC(C)C(C)NC(=O)COc1nc2ccccc2nc1N(C)C1CCCCC1 (configuration not stated) next?
Response: N
